B1: Tudor domain-containing protein 3, residues 554 to 611; numbered along this chain, Q9H7E2 (parent)
chain: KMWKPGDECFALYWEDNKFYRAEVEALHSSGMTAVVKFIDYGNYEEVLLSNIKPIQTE

Variants of: B1
Experiment description: abundance fitness (aPCA) (normalised: wild type 0, dead -1); higher = more abundant; growth selection in yeast, the domain comes from the species named
Condition parameters: Homo sapiens
Parameter: abundance fitness
Answers are plain numbers.

Solved entries (count: 2):
L27A ... -0.651
P54E ... -0.006

Here is the next item to consider.
Qu. Could you please provide reported abundance fitness for Y41Q ? Thanks!
Ans. 0.105
